The compounds listed here are annotated with their thermal shift delta Tm.
# Tested on: LOC_OS05G16824-cb004;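 also: purified Escherichia coli-expressed rice kinase domain construct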
# protocolSummary: thermal shift delta Tm vs DMSO control; higher = stronger stabilization (binding)
# testContext: 12.5 µM; protein concentration 2 µM
Counter-ions that a name gives are not always drawn.
Entry rule: numbers only, all in °C.

The examples below pair each entry with its known result.
O=C1NC(=O)[C@@H](c2cn3c4c(cccc24)CCC3)[C@@H]1c1c[nH]c2ccccc12 [Tivantinib (ARQ 197)]
-2.47
CCc1ccc(/C=C2/SC(=S)NC2=O)cc1
-3.64
CCn1c(N)c(C(=O)NC)c(=O)c2ccc(C#CC(C)(O)COC)nc21 (centres undefined)
3.79
N=C(N)NC(=N)NCCc1ccccc1 [Phenformin HCl]
-6.46
NC(=O)c1ccc(N(C(N)=O)c2c(F)cccc2F)nc1-c1ccc(F)cc1F
-5.64
CC(C)n1nc(-c2cc3cc(O)ccc3[nH]2)c2c(N)ncnc21 [Torkinib (PP242)]
-3.24

Write down thermal shift delta Tm measured for item `Oc1cccc(-c2nc(N3CCOCC3)c3oc4ncccc4c3n2)c1`
1.57

Write down thermal shift delta Tm measured for item `C[C@@H](Oc1ccc2[nH]nc(/C=C/c3cnn(CCO)c3)c2c1)c1c(Cl)cncc1Cl`
12.1

Write down thermal shift delta Tm measured for item `Cc1nc(Nc2n[nH]c3c2CN(C(=O)N[C@H](CN(C)C)c2ccccc2)C3(C)C)c2sccc2n1`
5.08

Write down thermal shift delta Tm measured for item `CN1CCC(Nc2nc(Nc3ccc(Oc4ccccc4)cc3)c3c(=O)[nH]cc(Br)c3n2)CC1`
9.77
